tested on: Leishmania infantum; assay: Antileishmanial activity against Leishmania infantum MCAN/ES/92/BCN 83 promastigotes at 100 ug/ml after 48 hrs by resazurin method; format: functional; settings: MCAN/ES/92/BCN 83, 48 h, read-out: GI
Consider the following compounds and their measured inhibition of growth at 100 µg/mL readings.
Unit % implied. Number only.

O=S(=O)(Nc1nccs1)c1ccc(Cl)cc1 ... 65
Cc1csc(NS(=O)(=O)c2ccc([N+](=O)[O-])cc2)n1 ... 55.6
O=[N+]([O-])c1ccc(S(=O)(=O)Nc2cccnc2)cc1 ... 35.7
O=[N+]([O-])c1ccc(S(=O)(=O)Nc2ccc3[nH]ncc3c2)cc1 ... 88.2
O=S(=O)(Nc1ccc2c(c1)CCC2)c1ccc(Cl)cc1 ... 49.9

Request: Data request, read-out inhibition of growth at 100 µg/mL, for "O=[N+]([O-])c1ccccc1S(=O)(=O)Nc1ncccn1"
Response: 40.6

Request: Record request: inhibition of growth at 100 µg/mL value, item O=[N+]([O-])c1ccc(S(=O)(=O)Nc2nccs2)cc1 [PARA-NITROSULFATHIAZOLE]
Response: 58.6

Request: So what's the measured inhibition of growth at 100 µg/mL for this one? "O=S(=O)(Nc1cnccn1)c1ccccc1"
Response: 37

Request: Please report the recorded inhibition of growth at 100 µg/mL for "Cc1cnc(NS(=O)(=O)c2ccc(Cl)cc2)s1" .
Response: 74.5
